Provenance of the data: PubChem BioAssay (NCI)

# Tested on: OVCAR-3 ovarian
# METHOD: NCI-60 one-dose screen, 48 h (100 = growth as untreated, 0 = no growth, -100 = all killed)
# CONDITIONS USED: 10 µM unless noted
About 83,000 compounds went through this panel and 20% of them were active in at least one assay; those are over-represented in the sample as a whole.
READOUT NAME: growth (%)
Write it as a number; the unit % goes unstated.

Query: Provide OVCAR-3 ovarian growth reading for NCCN1CCN(c2nccc(-c3ccc4ccccc4c3)n2)CC1 .
Response: 73.8

###

The following compounds are listed with their measured growth values.
# Test system: SF-295 CNS
# METHOD: NCI-60 one-dose screen, 48 h (100 = growth as untreated, 0 = no growth, -100 = all killed)
# CONDITIONS USED: 10 µM unless noted
Compounds without any hit were thinned out: in the full panel of roughly 83,000, 20% have a hit.
Quick reminder: number only, in %, skip the unit.

compound=CC1=CC(=O)CC(C)(C)[C@@]1(O)/C=C/[C@@H](C)O result_value=91.5
compound="C=C1CC2(OC1=O)C(=O)N(CCCCCCCN1C(=O)C3(CC(=C)C(=O)O3)c3ccccc31)c1ccccc12 (stereo unspecified)" result_value=82.6
compound=CCC(=O)OCc1cccc(OC)c1 result_value=104

Query: Give recorded growth. C=C1CC2(OC1=O)C(=O)Nc1ccccc12 (stereo unspecified)
Response: 96

Query: Find the measured growth of CCOC(=O)C(C#N)C1CCCCC1 (stereo unspecified) and report it.
Response: 93.5

Query: Tell me its growth given CNC(=O)c1cc(Oc2ccc3nc(NC(=O)Nc4ccc(N5CCC(N(C)C)CC5)cc4)sc3c2)ccn1 as the entry.
Response: 98.9

Query: Given C/C(=C(/c1ccc(O)cc1)c1ccc(Cl)cc1)c1ccccc1 , respond with its growth.
Response: -95.1

Query: Please give the documented growth of NS(=O)(=O)c1ccc(-n2ncc3c(=O)[nH]c(CN4CCN(c5cc6c(cc5F)c(=O)c(C(=O)O)cn6C5CC5)CC4)nc32)cc1
Response: 91.8

Query: Input CCCCCCCCCCCCS(=O)CC(C)O (stereo unspecified) , output reported growth.
Response: 100

Query: Look up growth of CCCCCCCCCCCCCCCCCCNC(=O)[C@H]1CSC(c2ccc(OC)c(F)c2)N1 (stereo partly specified) and report it.
Response: 87.5

Query: Please list growth recorded for the compound Cc1cc(N/N=C/c2nc(-c3ccc(Cl)cc3)oc2C)c2cc(Cl)ccc2n1
Response: 98.6

###

# System: HS 578T breast
# METHOD: NCI-60 one-dose screen, 48 h
# CONDITIONS USED: 10 µM unless noted
The panel holds about 83,000 compounds, 20% with a hit somewhere; the sample as a whole holds those more often. Calls of active or inactive are those of the source. How the source made its calls: active means growth percent below 10; inactive means the rest.
Respond only with the outcome that fits, drawn from active, inactive

chemical_smiles=O=C1c2ccccc2-c2nccc3cc(Cl)nc1c23 assigned_category=active
chemical_smiles=O=C(CN1CCOCC1)Nc1ccc(Cn2nnc3c2C(=O)c2nnn(Cc4ccc(NC(=O)CN5CCOCC5)cc4)c2C3=O)cc1 assigned_category=inactive

Query: Fill in: this test's call for Cc1ccc2c(c1)C(=O)/C(=C/c1ccc(OCC(=O)c3ccccc3)cc1)O2 is ___
Response: inactive

Query: Could you check what this test reported for Cc1cc2cc3cc(C)c(N(C)C)cc3[n+](C)c2cc1N(C)C ?
Response: inactive

Query: What call does the record list for Nc1c(C(=O)Nc2ccccc2Cl)sc2nc3c(cc12)CCCCCC3 ?
Response: inactive
